Quick reference: IFI of the listed items.
Experiment: GSK_TCMDC: Inhibition Frequency Index (IFI). The number of non-kinase HTS assays where a compound showed > 50 % inhibition, expressed as a percentage of the number of such assays in which the compound was tested
Type: functional
The full ranking holds about 13,000 compounds; the median of “IFI” is about 4, and the highest 2% start at about 17. For the sample, the highest values were picked, then their nearest neighbours and some compounds at random.

{"MOLECULE": "C#CCNCc1ccc(-c2ccc(-c3nc4cc(C(F)(F)F)ccc4[nH]3)s2)cc1", "SCALE_UNIT": "%", "IFI": 8.82}
{"MOLECULE": "CCN(CC)CCN(Cc1ccc(-c2ccc(C(F)(F)F)cc2)cc1)C(=O)Cn1c(CCc2cccc(F)c2F)nc(=O)c2ccccc21", "SCALE_UNIT": "%", "IFI": 8.39}
{"MOLECULE": "CCCCCCCn1c(=N)n(CC(O)c2ccc(Cl)c(Cl)c2)c2ccccc21 (stereo not drawn)", "SCALE_UNIT": "%", "IFI": 17.6}
{"MOLECULE": "CN1CCN(c2nsc3ccc(-c4ccc(OCCN5CCCC5)cc4)cc23)CC1", "SCALE_UNIT": "%", "IFI": 12.2}
{"MOLECULE": "CC1(CCc2ccccc2)N=C(N)N(Cc2ccccc2)C(=O)C1c1ccc(Cl)c(Cl)c1 (stereo not drawn)", "SCALE_UNIT": "%", "IFI": 19.2}
{"MOLECULE": "CC1(CCc2ccccc2)N=C(Nc2ccc(Cl)cc2)N=C(N)C1c1ccc(Cl)c(Cl)c1 (stereo not drawn)", "SCALE_UNIT": "%", "IFI": 26.6}
{"MOLECULE": "CC1(C)N=C(N)N=C(N)C1c1ccc(Cl)c(Cl)c1 (stereo not drawn)", "SCALE_UNIT": "%", "IFI": 1.43}
{"MOLECULE": "CCN(CC)CCn1c(=N)n(CC(O)c2ccc(Cl)c(Cl)c2)c2ccccc21 (stereo not drawn)", "SCALE_UNIT": "%", "IFI": 6.52}
